Origin of values: the supplement of paper PMC10567573

Each entry below carries its reported protein stability index.
B1: STK38L (parent)
chain: RQLAYSTVGTPDYIAPEVFMQTGY

Variants of: B1
Assay: protein stability index of a GFP-peptide fusion (GPS, HEK-293T) (PSI 1-6); higher = more stable;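 further: lentivirally expressed fusions sorted by FACS into six bins by GFP to DsRed ratio, PSI derived from sequencing read proportions per bin multiplied by bin number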
Conditions: c terminus: a fixed tail appended
quantityKind: protein stability index

{"variantDescription": "A15L", "quantityKind": "protein stability index", "testValue": 2.3}
{"variantDescription": "P11Q", "quantityKind": "protein stability index", "testValue": 2.49}
{"variantDescription": "S6C", "quantityKind": "protein stability index", "testValue": 1.84}
{"variantDescription": "G9I", "quantityKind": "protein stability index", "testValue": 2.17}
{"variantDescription": "D12N", "quantityKind": "protein stability index", "testValue": 2.76}
{"variantDescription": "V18L", "quantityKind": "protein stability index", "testValue": 1.8}
{"variantDescription": "A4P", "quantityKind": "protein stability index", "testValue": 2.39}
{"variantDescription": "T7V", "quantityKind": "protein stability index", "testValue": 2.04}
{"variantDescription": "P16H", "quantityKind": "protein stability index", "testValue": 2.17}
{"variantDescription": "R1P", "quantityKind": "protein stability index", "testValue": 3.41}
{"variantDescription": "A15R", "quantityKind": "protein stability index", "testValue": 2.27}
{"variantDescription": "L3T", "quantityKind": "protein stability index", "testValue": 2.84}
{"variantDescription": "G23P", "quantityKind": "protein stability index", "testValue": 2.35}
{"variantDescription": "Y5P", "quantityKind": "protein stability index", "testValue": 3.42}
{"variantDescription": "D12I", "quantityKind": "protein stability index", "testValue": 1.81}
{"variantDescription": "V18H", "quantityKind": "protein stability index", "testValue": 2.51}
{"variantDescription": "V18P", "quantityKind": "protein stability index", "testValue": 2.31}
{"variantDescription": "G9K", "quantityKind": "protein stability index", "testValue": 2.24}
{"variantDescription": "P16F", "quantityKind": "protein stability index", "testValue": 2.79}
{"variantDescription": "A15Y", "quantityKind": "protein stability index", "testValue": 1.68}
{"variantDescription": "G9W", "quantityKind": "protein stability index", "testValue": 1.89}
{"variantDescription": "A4K", "quantityKind": "protein stability index", "testValue": 3.29}
{"variantDescription": "A4M", "quantityKind": "protein stability index", "testValue": 2.6}
{"variantDescription": "A4E", "quantityKind": "protein stability index", "testValue": 2.8}
{"variantDescription": "A4L", "quantityKind": "protein stability index", "testValue": 2.69}
{"variantDescription": "F19E", "quantityKind": "protein stability index", "testValue": 3.38}
{"variantDescription": "I14M", "quantityKind": "protein stability index", "testValue": 2.4}
{"variantDescription": "V8E", "quantityKind": "protein stability index", "testValue": 3.29}
{"variantDescription": "M20C", "quantityKind": "protein stability index", "testValue": 2.63}
{"variantDescription": "Y5G", "quantityKind": "protein stability index", "testValue": 3.03}
{"variantDescription": "S6K", "quantityKind": "protein stability index", "testValue": 2.43}
{"variantDescription": "Y24F", "quantityKind": "protein stability index", "testValue": 2.19}
{"variantDescription": "Y13F", "quantityKind": "protein stability index", "testValue": 1.93}
{"variantDescription": "V8N", "quantityKind": "protein stability index", "testValue": 2.41}
{"variantDescription": "Y13W", "quantityKind": "protein stability index", "testValue": 1.88}
{"variantDescription": "A15C", "quantityKind": "protein stability index", "testValue": 2.57}
{"variantDescription": "S6Q", "quantityKind": "protein stability index", "testValue": 2.25}
{"variantDescription": "T7E", "quantityKind": "protein stability index", "testValue": 3.02}
{"variantDescription": "G9L", "quantityKind": "protein stability index", "testValue": 3.14}
{"variantDescription": "P11K", "quantityKind": "protein stability index", "testValue": 2.59}
{"variantDescription": "G9E", "quantityKind": "protein stability index", "testValue": 2.71}
{"variantDescription": "Q21R", "quantityKind": "protein stability index", "testValue": 2.62}
{"variantDescription": "L3S", "quantityKind": "protein stability index", "testValue": 2.65}
{"variantDescription": "E17S", "quantityKind": "protein stability index", "testValue": 2.21}
{"variantDescription": "F19D", "quantityKind": "protein stability index", "testValue": 4.07}
{"variantDescription": "V18Y", "quantityKind": "protein stability index", "testValue": 3.3}
{"variantDescription": "Y5Q", "quantityKind": "protein stability index", "testValue": 3.43}
{"variantDescription": "Y13A", "quantityKind": "protein stability index", "testValue": 2.9}
{"variantDescription": "A4S", "quantityKind": "protein stability index", "testValue": 2.65}
{"variantDescription": "E17W", "quantityKind": "protein stability index", "testValue": 1.44}
{"variantDescription": "A15W", "quantityKind": "protein stability index", "testValue": 1.58}
{"variantDescription": "R1G", "quantityKind": "protein stability index", "testValue": 1.95}
{"variantDescription": "A15F", "quantityKind": "protein stability index", "testValue": 1.98}
{"variantDescription": "G23E", "quantityKind": "protein stability index", "testValue": 2.5}
{"variantDescription": "R1A", "quantityKind": "protein stability index", "testValue": 2.38}
{"variantDescription": "Y13D", "quantityKind": "protein stability index", "testValue": 3.26}
{"variantDescription": "T10I", "quantityKind": "protein stability index", "testValue": 1.3}
{"variantDescription": "A4H", "quantityKind": "protein stability index", "testValue": 2.61}
{"variantDescription": "T7P", "quantityKind": "protein stability index", "testValue": 3.26}
{"variantDescription": "Y24E", "quantityKind": "protein stability index", "testValue": 4.54}
{"variantDescription": "P11C", "quantityKind": "protein stability index", "testValue": 2.57}
{"variantDescription": "E17R", "quantityKind": "protein stability index", "testValue": 2.71}
{"variantDescription": "D12V", "quantityKind": "protein stability index", "testValue": 1.59}
{"variantDescription": "Y24G", "quantityKind": "protein stability index", "testValue": 3.43}
{"variantDescription": "M20N", "quantityKind": "protein stability index", "testValue": 2.87}
{"variantDescription": "V8I", "quantityKind": "protein stability index", "testValue": 2.58}
{"variantDescription": "R1T", "quantityKind": "protein stability index", "testValue": 2.56}
{"variantDescription": "Y24Q", "quantityKind": "protein stability index", "testValue": 3.53}
{"variantDescription": "E17F", "quantityKind": "protein stability index", "testValue": 1.9}
{"variantDescription": "V8R", "quantityKind": "protein stability index", "testValue": 2.25}
{"variantDescription": "T10Y", "quantityKind": "protein stability index", "testValue": 1.72}
{"variantDescription": "L3M", "quantityKind": "protein stability index", "testValue": 2.72}
{"variantDescription": "S6W", "quantityKind": "protein stability index", "testValue": 2.5}
{"variantDescription": "I14N", "quantityKind": "protein stability index", "testValue": 2.95}
{"variantDescription": "Q21K", "quantityKind": "protein stability index", "testValue": 2.66}
{"variantDescription": "I14Q", "quantityKind": "protein stability index", "testValue": 2.66}
{"variantDescription": "R1H", "quantityKind": "protein stability index", "testValue": 2.38}
{"variantDescription": "A4C", "quantityKind": "protein stability index", "testValue": 2.14}
{"variantDescription": "I14K", "quantityKind": "protein stability index", "testValue": 3.11}
{"variantDescription": "G9H", "quantityKind": "protein stability index", "testValue": 2.42}
{"variantDescription": "Q2K", "quantityKind": "protein stability index", "testValue": 2.54}
{"variantDescription": "D12T", "quantityKind": "protein stability index", "testValue": 2.91}
{"variantDescription": "Y5W", "quantityKind": "protein stability index", "testValue": 2.13}
{"variantDescription": "E17I", "quantityKind": "protein stability index", "testValue": 2.17}
{"variantDescription": "T10D", "quantityKind": "protein stability index", "testValue": 2.16}
{"variantDescription": "R1C", "quantityKind": "protein stability index", "testValue": 2.06}
{"variantDescription": "Q21F", "quantityKind": "protein stability index", "testValue": 2.21}
{"variantDescription": "V8H", "quantityKind": "protein stability index", "testValue": 2.92}
{"variantDescription": "A4Q", "quantityKind": "protein stability index", "testValue": 3.1}
{"variantDescription": "F19S", "quantityKind": "protein stability index", "testValue": 2.78}
{"variantDescription": "P16T", "quantityKind": "protein stability index", "testValue": 1.82}
